Numbers sourced from the RNAGym collection of RNA variant scans (doi:10.7554/elife.80360).

B1: Hairpin Ribozyme (parent)
chain: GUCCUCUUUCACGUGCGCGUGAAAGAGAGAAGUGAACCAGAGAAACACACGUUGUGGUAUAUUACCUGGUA

variants of: B1; test: self-cleavage, relative activity (ratio to wild type); higher = more cleavage; co-transcriptional
measured_attribute: self-cleavage

[[record]]
mutations = "C16G U67C"
assay_result = 0.155

[[record]]
mutations = "U8G G15C"
assay_result = 0.639

[[record]]
mutations = "G21U A36G"
assay_result = 1.07

[[record]]
mutations = "G25A U70G"
assay_result = 0.509

[[record]]
mutations = "U9G C37U"
assay_result = 0.5

[[record]]
mutations = "C6G C10A"
assay_result = 0.354

[[record]]
mutations = "G32A G69U"
assay_result = 0.161

[[record]]
mutations = "U8A G69C"
assay_result = 0.191

[[record]]
mutations = "C6G A43U"
assay_result = 0.0915

[[record]]
mutations = "U9C G17A"
assay_result = 0.805

[[record]]
mutations = "C3G G34A"
assay_result = 0.27

[[record]]
mutations = "G29U A43C"
assay_result = 0.0797

[[record]]
mutations = "A28C A64U"
assay_result = 0.237

[[record]]
mutations = "A35C G51A"
assay_result = 1.26

[[record]]
mutations = "G29A A64C"
assay_result = 0.115

[[record]]
mutations = "A49C A61C"
assay_result = 0.124

[[record]]
mutations = "A35C A36C"
assay_result = 0.517

[[record]]
mutations = "U8A G25U"
assay_result = 0.114

[[record]]
mutations = "G13C U53A"
assay_result = 0.747

[[record]]
mutations = "C12U G69A"
assay_result = 0.406

[[record]]
mutations = "A43C U58C"
assay_result = 0.148

[[record]]
mutations = "C12A U60A"
assay_result = 0.621

